system: UO-31 renal; assay: NCI tumour cell line growth inhibition, 48 h
EXPERIMENTAL_ENDPOINT: GI50

Solved entries:
compound=COc1ccc(/C=C\c2cc(OC)c(OC)c(OC)c2)c(O)c1O target_or_system="UO-31 renal" result_value="6.76 µM"
compound="COc1ccc2c(c1)N(CCO)C1=C(C(=O)OC1)C2c1ccccc1 (stereo not given)" target_or_system="UO-31 renal" result_value="2.37 µM"
compound=O=C(Cn1c(C(=O)c2ccccc2)nc2ccccc21)c1ccc(F)cc1 target_or_system="UO-31 renal" result_value="> 43.8 µM"
compound=CO[C@@H]1[C@H]2[C@@H](C)c3ccoc3C[C@@H]2[C@@]2(C)CC[C@H](OC(=O)c3ccccc3)[C@](C)(C(=O)O)[C@]2(O)[C@@H]1OC(=O)c1ccccc1 target_or_system="UO-31 renal" result_value="> 50 µM"

Consider now this further compound.
input: Quick check: GI50 on UO-31 renal, item COc1ccc(/C=C2\CC(C)CC3C2=NN(c2ccccc2)C3c2ccc(OC)c(OC)c2)cc1OC (stereo not given) ?
output: 5.75 µM

====

system: OVCAR-8 ovarian; experiment: NCI tumour cell line growth inhibition, 48 h
Measured TGI values are reported for all entries that follow.

Solved entries:
compound=CC(=O)O[C@H]1C(=O)[C@@]2(C)[C@H]([C@H](OC(=O)c3ccccc3)[C@@]3(O)C[C@H](O)C(C)=C1C3(C)C)[C@]1(OC(C)=O)CO[C@@H]1C[C@@H]2O result_value="> 100 µM"
compound=COc1ccc(CNc2cnc3cc(N)cc(N)c3n2)cc1 result_value="39.8 µM"
compound="C#CCN(N=O)C(=O)NCCCC(NC(C)=O)C(=O)NCc1ccccc1 (stereo not drawn)" result_value="> 100 µM"
compound=COC(=O)c1ccc2c(c1)c1c(C)c3ccncc3c(C)c1n2C result_value="> 100 µM"
compound="CC(=O)ON(C(C)=O)C1C(COC(c2ccccc2)(c2ccccc2)c2ccccc2)OC2OC3(CCCC3)OC21 (stereo not drawn)" result_value="> 100 µM"

input: Any idea what TGI was measured for "Nc1c(N2CCCCC2)c(=O)nc2[nH]/c(=C\c3ccccc3)c(=O)n12" ?
output: > 100 µM

input: Any idea what TGI was measured for "O=C(Nn1cnn2c(=O)c3ccccc3nc2c1=O)c1ccccc1" ?
output: > 100 µM

====

Listed here: molecules with reported GI50 for NCI-H460 lung.
Where a SMILES comes first, the peptide text is derived from it. [ ]: non-standard residue; d: D form. 2Nal = N[CH](Cc1ccc2ccccc2c1)C(=O)O

molecule=COc1ccc(/C=C\c2cc(OC)c(OC)c(OC)c2)c(O)c1O target_or_system="NCI-H460 lung" result_value="106 nM"
molecule=O=S(=O)(Nc1ccc2ccccc2c1)c1ccc(-c2cnc(C3CC3)o2)cc1 target_or_system="NCI-H460 lung" result_value="560 nM"
molecule="CC(C)C(NC(=O)C(CCCCN)NC(=O)C(Cc1c[nH]c2ccccc12)NC(=O)C(Cc1ccc(O)cc1)NC(=O)C(CS)NC(=O)C(N)Cc1ccc2ccccc2c1)C(=O)NC(CS)C(=O)NC(C(N)=O)C(C)O (stereo not given) (H-[2Nal]CYWKVCT-NH2; configuration not given here)" target_or_system="NCI-H460 lung" result_value="> 100000 nM"
molecule=CCOC(=O)c1cc(-c2ccc(OC)c(OC)c2)[nH]c1N/N=C/c1c(Cl)cccc1Cl target_or_system="NCI-H460 lung" result_value="1350 nM"
molecule="CCOc1c(C#N)c2c(N)ncnc2n1C1OC(CO)C(O)C1O (stereo not given)" target_or_system="NCI-H460 lung" result_value="2480 nM"

input: Any idea what GI50 was measured for "COc1cc(-c2ccc(NC(=O)NC3CC3)c(OC)c2)ccc1NC(=O)NC1CC1" ?
output: 1510 nM

input: Any idea what GI50 was measured for COc1ccc(/C=C2\CC(C)CC3C2=NN(c2ccccc2)C3c2ccc(OC)c(OC)c2)cc1OC (stereo not given) ?
output: 3090 nM

input: Any idea what GI50 was measured for O=C(NN1C(=O)CSC12CCCC2)C(O)c1ccccc1 (stereo not given) ?
output: > 100000 nM

====

Measured TGI values are reported for all entries that follow.
test system: HS 578T breast; assay: NCI tumour cell line growth inhibition, 48 h

Solved entries:
molecule="C=C1CC(COc2ccc3c(C)cc(=O)oc3c2)(c2ccccc2)OC1=O (stereo not drawn)" target_or_system="HS 578T breast" experimental_endpoint=TGI result_value="> 27 µM"
molecule="COc1ccc2c(c1)N(CCO)C1=C(C(=O)OC1)C2c1ccccc1 (stereo not drawn)" target_or_system="HS 578T breast" experimental_endpoint=TGI result_value="4.99 µM"

input: Any idea what TGI was measured for "COc1ncnc2c1cnn2Cc1cn(CCCCO)nn1" ?
output: > 100 µM

input: Any idea what TGI was measured for OC(c1ccccc1)C(F)(F)c1nc2ccccc2o1 (stereo not drawn) ?
output: > 100 µM

input: Any idea what TGI was measured for "O=C(CCOS(=O)(=O)CF)N1CCN(C(=O)CCOS(=O)(=O)CF)CC1" ?
output: > 100 µM

input: Any idea what TGI was measured for C=C1CCC2C3(C)COC(c4ccc(Cl)cc4)OC3CCC2(C)C1/C=C/C1=CCOC1=O (stereo not drawn) ?
output: 42.5 µM

input: Any idea what TGI was measured for CC(=O)C1CCC2C3CC=C4CC(SC(=N)N)CCC4(C)C3CCC12C (stereo not drawn) ?
output: 11.3 µM

input: Any idea what TGI was measured for "O=C(Nc1cccnc1)c1ccc2ccc3ccc(C(=O)Nc4cccnc4)nc3c2n1" ?
output: > 100 µM

====

system: IGROV1 ovarian; assay: NCI tumour cell line growth inhibition, 48 h
Measured TGI values are reported for all entries that follow.

compound="CCOc1c(C#N)c2c(N)ncnc2n1C1OC(CO)C(O)C1O (stereo unspecified)" result_value="2.54 µM"
compound="CC(O[Si](c1ccccc1)(c1ccccc1)C(C)(C)C)[C@H](NC(=O)OC(C)(C)C)C(=O)O (stereo partly specified)" result_value="50.2 µM"
compound="CC(=O)ON(C(C)=O)C1C(COC(c2ccccc2)(c2ccccc2)c2ccccc2)OC2OC3(CCCC3)OC21 (stereo unspecified)" result_value="> 100 µM"
compound=CCCCN=C1OCc2[nH][nH]c(=O)c21 result_value="> 100 µM"

input: Any idea what TGI was measured for COc1cc2c(c(OC(C)=O)c1OC(C)=O)-c1ccc(SC)c(=O)cc1C(NC(C)=O)CC2 (stereo unspecified) ?
output: > 100 µM

input: Any idea what TGI was measured for "O=C(NNC(=S)Nc1ccccc1)c1ccccn1" ?
output: > 100 µM

input: Any idea what TGI was measured for "COc1ccc(C[C@H](N)C(=O)N2C[C@@H](CO)C[C@@H](n3cnc4c(N(C)C)ncnc43)C2)cc1" ?
output: > 100 µM

input: Any idea what TGI was measured for COCOCC[C@@H]1CC=CC(NC(=O)OCc2ccccc2)C1/C=C/C(=O)CCC1OCCO1 (stereo partly specified) ?
output: > 100 µM

====

tested on: TK-10 renal; test: NCI tumour cell line growth inhibition, 48 h
Measured TGI values are reported for all entries that follow.

molecule="CN(C)c1ccc(C2ON=C(c3ccccc3)N2C23CC4CC(CC(C4)C2)C3)cc1 (stereo not given)" result_value="> 10 µM"

input: Quick check: TGI on TK-10 renal, item "CCCCCCN(C)Cc1ccc(OCCOc2ccc(CN(C)CCCCCC)cc2)cc1" ?
output: 2.6 µM

input: Quick check: TGI on TK-10 renal, item "Cc1cc(C)n(C(=O)CSc2nnc(SCC(=O)n3nc(C)cc3C)s2)n1" ?
output: > 100 µM

input: Quick check: TGI on TK-10 renal, item C=C1CCC2C3(C)COC(c4ccc(Cl)cc4)OC3CCC2(C)C1/C=C/C1=CCOC1=O (stereo not given) ?
output: > 100 µM

input: Quick check: TGI on TK-10 renal, item "COc1cc(CC(C(=O)O)C(=O)O)c(OC)cc1CC(C(=O)O)C(=O)O" ?
output: > 100 µM

====

test system: RPMI-8226 leukemia; experiment: NCI tumour cell line growth inhibition, 48 h
Measured TGI values are reported for all entries that follow.
Please state the figure in µM; there is no need to write the unit.

compound="C[C@]12CC/C(=N\\OCCN3CCCCC3)C=C1CCC1C2CC[C@@]2(C)C1CC[C@]2(C)O (stereo partly drawn)" result_value=31.5
compound="CCOc1c(C#N)c2c(N)ncnc2n1C1OC(CO)C(O)C1O (stereo not drawn)" result_value=9
compound=CC(=O)Oc1c(C)c2c(c3ccccc13)OC(C)(C)C2 result_value=39.1
compound="C=C1CC(CN2CCC(=O)NC2=O)(c2ccccc2)OC1=O (stereo not drawn)" result_value=7.95

Consider now this further compound.
input: Any idea what TGI was measured for COc1ccc(N2C(=O)/C(=C\c3cccc(Oc4ccccc4)c3)SC2c2ccccc2)cc1 (stereo not drawn) ?
output: 60.9
